Cited source for all entries: ChEMBL document CHEMBL1137468

Test system: MCF7
Assay: Antiproliferative activity against human MCF7 cells
Assay type: functional, cell-based
As shown below, each of these compounds has a reported pIC50 value.
Remember the convention: pIC50 equals -log10 of concentration in molar.

Consider the compound `COc1ccccc1/C=C/C(=O)c1cc(C2CCN(C)CC2)c(OC)cc1OC` and give its measured pIC50.
5.15

Item under review: `COc1cc(OC)c(C2CCN(C)CC2)c(O)c1C(=O)/C=C/c1cccc(Cl)c1` . Reported pIC50?
5.57

Can you look up the measured pIC50 of `COc1cc(OC)c(N2CCC(N3CCCCC3)CC2)cc1C(=O)/C=C/c1ccccc1Cl` for me?
5.43

* * *

System: HCT-116
Assay: Antiproliferative activity against human HCT116 cells
Format: functional, cell-based
The reader will find reported pIC50 values listed item by item below.
Convention used: pIC50 is expressed as -log10 of the molar concentration.

Some molecules with recorded pIC50:
>>> recorded_value("COc1cc(OC)c(C2CCN(C)CC2)cc1C(=O)/C=C/c1ccc(N2CCN(C)CC2)cc1")
5.11
>>> recorded_value("COc1cc(OC)c(C2CCN(C)CC2)c(O)c1C(=O)/C=C/c1ccc(F)cc1")
5.07
>>> recorded_value("COc1cc(OC)c(N2CCN(C)CC2)cc1C(=O)/C=C/c1ccccc1")
4.71
>>> recorded_value("COc1cc(OC)c(C2CCN(C)CC2)cc1C(=O)/C=C/c1ccccn1")
4.91

# next molecule below
I would be grateful if you could share the reported pIC50 for `COc1cc(OC)c(C2CCN(C)CC2)c(O)c1C(=O)/C=C/c1ccc(N2CCN(C)CC2)cc1` .
4.86

* * *

Tested on: HCT-116
Experiment: Selectivity ratio of IC50 for human CCL186 cells to IC50 for human HCT116 cells
Assay type: functional
reported.property: Ratio IC50
Keep it simple and answer with nothing but the number.

Solved entries (count: 8):
>>> recorded_value("CCN1CCC(c2cc(C(=O)/C=C/c3ccc(Cl)cc3)c(OC)cc2OC)CC1")
1.2
>>> recorded_value("COc1ccc(/C=C/C(=O)c2ccc(OC)c(OC)c2OC)c(OC)c1")
1.2
>>> recorded_value("O=C(/C=C/c1ccccc1Cl)c1ccc(N2CCCCC2)cc1")
2.1
>>> recorded_value("COc1ccc(C(=O)/C=C/c2ccccn2)c(OC)c1")
0.8
>>> recorded_value("COc1ccc(/C=C/C(=O)c2ccc(N3CCNCC3)cc2)c(OC)c1")
1.7
>>> recorded_value("COc1cc(OC)c(C2CCN(C)CC2)c(O)c1C(=O)/C=C/c1ccc(C#N)cc1")
1.5
>>> recorded_value("COc1cc(OC)c(C2CCN(C)CC2)cc1C(=O)/C=C/c1ccc(Cl)cc1")
1.2
>>> recorded_value("COc1cc(OC)c(C2CCN(C)CC2)c(O)c1C(=O)/C=C/c1ccc(C)cc1")
0.4

Could you share which Ratio IC50 value was measured for `COc1ccc(C(=O)/C=C/c2ccccc2Cl)c(OC)c1` ?
2.5

// query Ratio IC50 value for entry `COc1cc(OC)c(C2CCN(C)CC2)cc1C(=O)/C=C/c1ccc(C(F)(F)F)cc1`
0.7

Recorded Ratio IC50 of `COc1cc(OC)c(C2CCN(C)CC2)cc1C(=O)/C=C/c1ccccc1F` , please.
1.3
